# experimental.target: Voltage-gated inwardly rectifying potassium channel KCNH2 (Homo sapiens, UniProt Q12809, F656A)
# Sequence (Q12809 whole entry F656A): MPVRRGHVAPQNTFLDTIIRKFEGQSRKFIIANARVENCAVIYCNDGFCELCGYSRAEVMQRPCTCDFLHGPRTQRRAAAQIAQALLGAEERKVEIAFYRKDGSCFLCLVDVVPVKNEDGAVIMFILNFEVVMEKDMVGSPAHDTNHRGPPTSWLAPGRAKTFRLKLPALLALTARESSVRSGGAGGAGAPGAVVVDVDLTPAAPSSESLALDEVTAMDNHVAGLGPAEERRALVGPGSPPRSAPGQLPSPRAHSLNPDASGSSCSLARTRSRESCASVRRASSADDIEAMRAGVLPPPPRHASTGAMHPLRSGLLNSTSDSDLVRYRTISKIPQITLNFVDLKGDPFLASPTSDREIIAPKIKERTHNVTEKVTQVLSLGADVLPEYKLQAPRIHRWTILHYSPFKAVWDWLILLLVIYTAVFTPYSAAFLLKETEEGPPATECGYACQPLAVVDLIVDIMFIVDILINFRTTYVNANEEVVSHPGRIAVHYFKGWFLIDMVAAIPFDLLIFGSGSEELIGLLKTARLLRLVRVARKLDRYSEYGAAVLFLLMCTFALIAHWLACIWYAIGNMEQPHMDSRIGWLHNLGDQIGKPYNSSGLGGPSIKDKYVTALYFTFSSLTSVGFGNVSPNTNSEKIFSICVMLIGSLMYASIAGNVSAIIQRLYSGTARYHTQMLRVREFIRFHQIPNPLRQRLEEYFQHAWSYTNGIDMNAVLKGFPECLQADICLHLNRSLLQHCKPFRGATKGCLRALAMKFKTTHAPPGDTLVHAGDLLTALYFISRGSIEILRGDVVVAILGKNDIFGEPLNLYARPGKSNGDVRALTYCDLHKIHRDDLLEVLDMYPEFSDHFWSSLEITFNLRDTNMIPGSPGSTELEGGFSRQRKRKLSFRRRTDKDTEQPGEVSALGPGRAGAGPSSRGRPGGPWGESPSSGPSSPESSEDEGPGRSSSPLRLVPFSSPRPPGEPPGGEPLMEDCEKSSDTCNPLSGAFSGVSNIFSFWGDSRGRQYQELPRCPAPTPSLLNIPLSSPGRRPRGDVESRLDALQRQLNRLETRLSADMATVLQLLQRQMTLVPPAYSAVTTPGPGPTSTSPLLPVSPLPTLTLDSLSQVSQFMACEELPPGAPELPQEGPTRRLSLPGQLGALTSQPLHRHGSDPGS
# experiment.notes: Binding affinity to human ERG F656A tetrameric mutant expressed in HEK293 cells assessed as inhibition of tail current measured upon repolarization to -120 mV by patch clamp method
# Format: cell-based
readout.kind: IC50

input: Item `C[C@@H]1CN(c2c(F)c(N)c3c(=O)c(C(=O)O)cn(C4CC4)c3c2F)C[C@H](C)N1` has what recorded IC50?
output: > 250 µM

* * *

# experimental.target: Voltage-gated inwardly rectifying potassium channel KCNH2 (Homo sapiens, UniProt Q12809, Y652A)
# Sequence (Q12809 whole entry Y652A): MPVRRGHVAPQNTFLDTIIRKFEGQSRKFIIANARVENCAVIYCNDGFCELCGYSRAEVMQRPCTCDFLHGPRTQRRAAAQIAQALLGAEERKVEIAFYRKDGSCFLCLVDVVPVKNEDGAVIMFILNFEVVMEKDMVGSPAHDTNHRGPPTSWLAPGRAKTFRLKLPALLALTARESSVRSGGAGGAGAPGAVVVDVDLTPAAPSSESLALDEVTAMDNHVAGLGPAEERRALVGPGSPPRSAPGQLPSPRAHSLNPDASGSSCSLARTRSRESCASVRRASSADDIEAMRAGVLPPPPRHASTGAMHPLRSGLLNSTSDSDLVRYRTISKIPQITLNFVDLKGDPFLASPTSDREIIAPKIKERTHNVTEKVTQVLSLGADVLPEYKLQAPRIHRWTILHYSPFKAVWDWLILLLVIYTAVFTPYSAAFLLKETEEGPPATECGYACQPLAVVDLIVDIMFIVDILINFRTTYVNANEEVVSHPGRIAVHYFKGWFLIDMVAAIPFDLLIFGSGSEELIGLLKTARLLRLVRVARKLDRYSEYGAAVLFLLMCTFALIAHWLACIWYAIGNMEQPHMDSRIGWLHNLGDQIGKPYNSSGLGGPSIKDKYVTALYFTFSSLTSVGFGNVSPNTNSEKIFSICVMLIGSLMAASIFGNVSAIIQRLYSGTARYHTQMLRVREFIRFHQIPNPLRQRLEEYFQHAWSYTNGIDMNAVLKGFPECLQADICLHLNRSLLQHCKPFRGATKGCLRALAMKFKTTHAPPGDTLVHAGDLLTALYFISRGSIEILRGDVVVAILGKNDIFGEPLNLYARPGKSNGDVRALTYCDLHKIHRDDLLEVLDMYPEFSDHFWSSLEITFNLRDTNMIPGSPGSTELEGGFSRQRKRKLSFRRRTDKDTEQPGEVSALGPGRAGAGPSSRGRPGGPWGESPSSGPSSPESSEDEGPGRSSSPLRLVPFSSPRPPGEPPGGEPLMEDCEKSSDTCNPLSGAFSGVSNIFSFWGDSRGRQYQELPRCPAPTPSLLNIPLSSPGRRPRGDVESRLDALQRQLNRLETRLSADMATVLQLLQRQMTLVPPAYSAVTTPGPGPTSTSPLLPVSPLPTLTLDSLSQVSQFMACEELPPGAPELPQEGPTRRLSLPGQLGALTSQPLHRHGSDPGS
# experiment.notes: Binding affinity to human ERG Y652A tetrameric mutant expressed in HEK293 cells assessed as inhibition of tail current measured upon repolarization to -40 mV by patch clamp method
# Format: cell-based
readout.kind: IC50

input: Item `C[C@@H]1CN(c2c(F)c(N)c3c(=O)c(C(=O)O)cn(C4CC4)c3c2F)C[C@H](C)N1` has what recorded IC50?
output: > 250 µM
